Give T1R2a/R3 [MSD] maximum stimulation dose for every item shown.
- Study system: saT1R2a/R3 (Sparus aurata, UniProt A0A671TK95+A0A671VZB3)
- Sequence (A0A671TK95 20-825): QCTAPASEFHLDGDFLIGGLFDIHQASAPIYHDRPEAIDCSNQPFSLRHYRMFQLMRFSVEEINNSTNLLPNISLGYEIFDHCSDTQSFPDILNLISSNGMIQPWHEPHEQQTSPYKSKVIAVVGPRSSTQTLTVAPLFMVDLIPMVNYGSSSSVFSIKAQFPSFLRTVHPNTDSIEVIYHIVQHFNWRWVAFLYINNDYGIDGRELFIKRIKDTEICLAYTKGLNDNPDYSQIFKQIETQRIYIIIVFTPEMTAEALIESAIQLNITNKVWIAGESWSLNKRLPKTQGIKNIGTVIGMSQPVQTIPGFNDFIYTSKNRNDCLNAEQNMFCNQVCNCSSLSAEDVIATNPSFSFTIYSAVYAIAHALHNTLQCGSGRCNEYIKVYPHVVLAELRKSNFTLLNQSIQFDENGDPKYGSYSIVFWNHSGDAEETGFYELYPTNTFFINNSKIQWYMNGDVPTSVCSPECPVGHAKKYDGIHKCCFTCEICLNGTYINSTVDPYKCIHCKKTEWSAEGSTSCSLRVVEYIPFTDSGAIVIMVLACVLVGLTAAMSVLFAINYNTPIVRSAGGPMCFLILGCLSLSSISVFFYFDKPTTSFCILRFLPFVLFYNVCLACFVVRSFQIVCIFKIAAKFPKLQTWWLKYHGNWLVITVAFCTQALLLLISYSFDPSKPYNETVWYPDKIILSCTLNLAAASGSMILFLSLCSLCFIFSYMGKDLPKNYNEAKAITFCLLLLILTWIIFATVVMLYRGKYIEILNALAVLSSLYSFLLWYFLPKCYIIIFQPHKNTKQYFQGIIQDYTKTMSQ
- Sequence (A0A671VZB3 24-860): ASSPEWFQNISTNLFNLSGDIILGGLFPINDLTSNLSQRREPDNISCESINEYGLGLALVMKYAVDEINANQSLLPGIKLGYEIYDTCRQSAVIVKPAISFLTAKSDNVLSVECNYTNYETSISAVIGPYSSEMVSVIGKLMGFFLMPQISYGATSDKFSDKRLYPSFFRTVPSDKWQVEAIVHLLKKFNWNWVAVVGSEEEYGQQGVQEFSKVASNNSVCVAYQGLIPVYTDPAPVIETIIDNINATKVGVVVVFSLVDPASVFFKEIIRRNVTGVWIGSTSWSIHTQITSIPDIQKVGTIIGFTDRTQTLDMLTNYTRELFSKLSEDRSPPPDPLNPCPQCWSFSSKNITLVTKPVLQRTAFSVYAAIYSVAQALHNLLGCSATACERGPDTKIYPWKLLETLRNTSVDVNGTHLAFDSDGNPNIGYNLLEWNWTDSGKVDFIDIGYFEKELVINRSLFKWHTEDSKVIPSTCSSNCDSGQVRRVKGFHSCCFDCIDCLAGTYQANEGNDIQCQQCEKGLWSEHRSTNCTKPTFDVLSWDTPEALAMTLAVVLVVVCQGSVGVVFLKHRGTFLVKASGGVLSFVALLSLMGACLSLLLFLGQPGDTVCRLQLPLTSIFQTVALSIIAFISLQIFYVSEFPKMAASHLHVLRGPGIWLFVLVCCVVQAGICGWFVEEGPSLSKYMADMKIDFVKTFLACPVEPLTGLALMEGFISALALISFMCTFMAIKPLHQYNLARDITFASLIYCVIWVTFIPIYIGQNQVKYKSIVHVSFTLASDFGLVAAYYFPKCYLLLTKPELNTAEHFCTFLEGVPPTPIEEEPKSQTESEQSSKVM
- Run description: saT1R2a/R3 heterodimer transiently transfected in stable pGL3-NFAT-luc-HEK293 (Cl.3) cells, luciferase reporter
- Format: cell-based
- Condition description: as molarity; decimal comma

Guide cases for T1R2a/R3 [MSD] maximum stimulation dose, answers given:
N[C@@H](CO)C(=O)O [Ser, Serine]
1,00 × 10^-1 M
NCC(=O)O [Gly, Glycine]
1,00 × 10^-1 M
CC(C)[C@H](N)C(=O)O [Val, Valine]
1,00 × 10^-1 M
N[C@@H](CC(=O)O)C(=O)O [Asp, Aspartic acid]
1,00 × 10^-5 M
N[C@@H](Cc1ccccc1)C(=O)O [Phe, Phenylalanine]
1,00 × 10^-2 M

// batch mode: one T1R2a/R3 [MSD] maximum stimulation dose value per listed entry
1. NC(=O)C[C@H](N)C(=O)O [Asn, Asparagine]
2. CC(C)C[C@H](N)C(=O)O [Leu, Leucine]
3. CSCC[C@H](N)C(=O)O [Met, Methionine]
4. CC[C@H](C)[C@H](N)C(=O)O [Ile, Isoleucine]
5. N[C@@H](Cc1ccc(O)cc1)C(=O)O [Tyr, Tyrosine]
6. NCCCC[C@H](N)C(=O)O [Lys, Lysine]
7. O=C(O)[C@@H]1CCCN1 [Pro, Proline]
8. C[C@@H](O)[C@H](N)C(=O)O [Thr, Threonine]

1,00 × 10^-1 M
1,00 × 10^-1 M
1,00 × 10^-1 M
1,00 × 10^-1 M
1,00 × 10^-3 M
1,00 × 10^-3 M
1,00 × 10^-1 M
1,00 × 10^-1 M
